- Target Or System: Homeodomain-interacting protein kinase 4 (Homo sapiens)
- Measurement Protocol: Selectivity interaction (Enzymatic assay (Eurofins)) EUB0001049a HIPK4
Measure: IC50

Lookup: I would be grateful if you could share the reported IC50 for `COc1cc(Nc2nc(C)cc(-c3cnn4nc(OC)ccc34)n2)cc(C(F)(F)F)c1` .
Found: > 10 µM

---

- Target Or System: UniProtKB Q12809
- Sequence (Q12809 whole entry): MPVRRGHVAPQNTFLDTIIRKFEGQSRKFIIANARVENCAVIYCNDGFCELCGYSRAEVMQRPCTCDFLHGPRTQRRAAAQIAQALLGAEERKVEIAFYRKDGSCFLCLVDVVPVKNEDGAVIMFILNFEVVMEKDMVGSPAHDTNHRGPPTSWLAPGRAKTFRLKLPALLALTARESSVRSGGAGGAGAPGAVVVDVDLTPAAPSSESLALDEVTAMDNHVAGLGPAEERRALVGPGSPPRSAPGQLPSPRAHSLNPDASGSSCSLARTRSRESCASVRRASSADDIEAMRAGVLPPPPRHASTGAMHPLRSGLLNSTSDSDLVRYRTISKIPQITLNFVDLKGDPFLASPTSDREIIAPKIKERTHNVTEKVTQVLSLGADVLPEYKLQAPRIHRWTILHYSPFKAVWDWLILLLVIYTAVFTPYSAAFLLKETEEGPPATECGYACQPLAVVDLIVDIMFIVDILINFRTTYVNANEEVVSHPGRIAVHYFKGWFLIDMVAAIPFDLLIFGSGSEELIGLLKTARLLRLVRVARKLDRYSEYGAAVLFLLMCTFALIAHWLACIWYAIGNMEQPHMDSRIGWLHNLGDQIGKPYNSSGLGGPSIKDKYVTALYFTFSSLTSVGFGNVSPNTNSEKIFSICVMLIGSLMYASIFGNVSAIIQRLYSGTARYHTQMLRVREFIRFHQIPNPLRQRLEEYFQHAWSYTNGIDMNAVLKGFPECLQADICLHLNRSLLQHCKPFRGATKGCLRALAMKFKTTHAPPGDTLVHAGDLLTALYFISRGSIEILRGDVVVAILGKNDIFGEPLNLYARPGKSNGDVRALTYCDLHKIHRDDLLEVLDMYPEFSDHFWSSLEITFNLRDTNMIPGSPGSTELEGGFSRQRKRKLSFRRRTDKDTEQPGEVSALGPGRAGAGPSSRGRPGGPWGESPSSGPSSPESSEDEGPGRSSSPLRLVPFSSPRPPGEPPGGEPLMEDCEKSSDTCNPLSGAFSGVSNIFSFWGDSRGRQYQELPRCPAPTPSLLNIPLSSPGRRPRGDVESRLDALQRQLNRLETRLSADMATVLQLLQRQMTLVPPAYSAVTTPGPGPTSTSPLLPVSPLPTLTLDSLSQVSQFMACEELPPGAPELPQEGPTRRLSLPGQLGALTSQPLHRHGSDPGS
- Measurement Protocol: Selectivity interaction (Eurofins CEREP Diversity Profile (receptors and ion channels)) EUB0000279b KCNH2
- Condition Parameters: at 10 µM, read-out: % of control
Measure: activity

Lookup: Any idea what its activity is? The compound is `CC(=O)c1cc(-c2ccccc2OCC2CC2)c2ncccn12`
Found: 111%

---

- Target Or System: Protein arginine N-methyltransferase 9 (Homo sapiens)
- Sequence (Q6P2P2 whole entry): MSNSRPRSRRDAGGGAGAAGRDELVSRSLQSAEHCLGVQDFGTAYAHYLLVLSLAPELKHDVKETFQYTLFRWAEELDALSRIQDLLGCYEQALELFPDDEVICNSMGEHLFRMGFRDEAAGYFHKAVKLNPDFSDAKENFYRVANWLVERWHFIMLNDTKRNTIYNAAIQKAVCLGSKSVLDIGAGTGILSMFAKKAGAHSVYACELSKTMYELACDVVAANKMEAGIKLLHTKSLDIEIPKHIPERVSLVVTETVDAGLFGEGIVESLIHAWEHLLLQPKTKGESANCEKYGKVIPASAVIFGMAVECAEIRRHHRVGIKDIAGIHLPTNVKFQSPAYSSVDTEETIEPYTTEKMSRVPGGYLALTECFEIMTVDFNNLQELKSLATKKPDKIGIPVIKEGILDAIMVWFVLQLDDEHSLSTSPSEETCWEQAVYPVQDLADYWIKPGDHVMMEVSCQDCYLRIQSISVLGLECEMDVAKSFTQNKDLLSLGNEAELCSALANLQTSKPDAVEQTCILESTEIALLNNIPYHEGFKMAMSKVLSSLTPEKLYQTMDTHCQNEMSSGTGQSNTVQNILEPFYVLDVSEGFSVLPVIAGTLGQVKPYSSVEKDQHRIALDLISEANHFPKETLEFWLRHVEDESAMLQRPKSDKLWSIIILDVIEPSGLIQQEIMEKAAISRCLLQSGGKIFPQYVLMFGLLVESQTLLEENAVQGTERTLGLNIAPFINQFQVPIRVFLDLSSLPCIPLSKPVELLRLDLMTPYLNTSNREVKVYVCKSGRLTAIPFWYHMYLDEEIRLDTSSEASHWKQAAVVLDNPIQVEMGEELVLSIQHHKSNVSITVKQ
- Measurement Protocol: Selectivity interaction (Western blot assay (PRMT9 dependent SAP145 […] arginine dimethylation)) EUB0000236b PRMT9
pEC50: −log10 of the molar value.
Measure: pEC50

Lookup: Can you look up the measured pEC50 of `CC1=C(C)C(=O)C(C(C)(C)CC(=O)N(CCCCSC[C@H]2O[C@@H](n3cnc4c(N)ncnc43)[C@@H]3OC(C)(C)O[C@@H]32)Cc2cccc(-c3ccc(Cl)cc3)c2)=C(C)C1=O` for me?
Found: < 8.30

---

- Target Or System: Bromodomain-containing protein 4 (Homo sapiens)
- Measurement Protocol: Selectivity interaction (BROMOscan) EUB0001074a BRD4
pIC50: −log10 of the molar value.
Measure: pIC50

Lookup: Param item = `CCc1cc2cc(NS(=O)(=O)c3ccc(C#N)cc3)ccc2n(CC)c1=O` ; retrieve measured pIC50.
Found: < 4.00

---

- Target Or System: Misshapen-like kinase 1 (Homo sapiens)
- Sequence (Q8N4C8 whole entry): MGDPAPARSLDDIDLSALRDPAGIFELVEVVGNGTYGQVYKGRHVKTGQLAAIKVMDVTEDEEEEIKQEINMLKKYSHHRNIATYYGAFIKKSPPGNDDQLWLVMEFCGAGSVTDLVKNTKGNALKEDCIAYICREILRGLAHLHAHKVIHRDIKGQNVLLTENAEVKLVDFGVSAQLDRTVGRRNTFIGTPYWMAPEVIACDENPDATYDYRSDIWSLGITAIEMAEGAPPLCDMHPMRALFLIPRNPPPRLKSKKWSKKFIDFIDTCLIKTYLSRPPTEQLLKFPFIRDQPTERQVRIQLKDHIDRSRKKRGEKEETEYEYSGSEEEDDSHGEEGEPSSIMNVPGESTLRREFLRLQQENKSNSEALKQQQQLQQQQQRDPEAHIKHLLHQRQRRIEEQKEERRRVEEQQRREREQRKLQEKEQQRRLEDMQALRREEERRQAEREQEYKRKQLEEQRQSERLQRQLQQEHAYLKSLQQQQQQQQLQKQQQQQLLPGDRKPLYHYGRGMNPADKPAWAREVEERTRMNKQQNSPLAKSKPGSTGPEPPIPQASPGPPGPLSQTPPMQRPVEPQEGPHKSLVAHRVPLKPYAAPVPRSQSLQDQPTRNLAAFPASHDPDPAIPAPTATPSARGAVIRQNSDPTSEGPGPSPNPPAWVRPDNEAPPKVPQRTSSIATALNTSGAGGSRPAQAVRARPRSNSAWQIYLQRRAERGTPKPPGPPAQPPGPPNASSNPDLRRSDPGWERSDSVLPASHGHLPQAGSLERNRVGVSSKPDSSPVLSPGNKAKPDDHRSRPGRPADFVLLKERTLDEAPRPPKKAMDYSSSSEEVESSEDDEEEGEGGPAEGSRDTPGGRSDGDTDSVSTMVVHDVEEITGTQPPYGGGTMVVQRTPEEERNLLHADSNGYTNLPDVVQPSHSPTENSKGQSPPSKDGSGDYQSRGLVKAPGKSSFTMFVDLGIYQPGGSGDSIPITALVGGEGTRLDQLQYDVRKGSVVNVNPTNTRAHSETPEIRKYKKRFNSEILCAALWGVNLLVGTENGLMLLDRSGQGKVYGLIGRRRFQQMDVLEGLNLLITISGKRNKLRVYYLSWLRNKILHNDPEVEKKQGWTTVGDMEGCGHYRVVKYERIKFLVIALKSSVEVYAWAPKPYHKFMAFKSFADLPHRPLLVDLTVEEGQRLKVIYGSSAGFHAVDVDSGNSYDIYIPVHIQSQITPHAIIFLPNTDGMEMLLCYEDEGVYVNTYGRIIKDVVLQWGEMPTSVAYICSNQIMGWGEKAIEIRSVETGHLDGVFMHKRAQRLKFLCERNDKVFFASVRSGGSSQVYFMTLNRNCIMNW
- Measurement Protocol: Selectivity interaction (Enzymatic assay) EUB0001199aCl MINK1
Measure: pIC50
Please note pIC50 is a logarithmic value: minus log10 of concentration in mol/L. Answer with that number alone.

Lookup: Look up pIC50: `CN1Cc2nccc(-c3cn(C)nc3-c3ccc(F)cc3)c2C1=O`
Found: 5.80

---

- Target Or System: Serine/threonine-protein kinase PAK 4 (Homo sapiens)
pIC50: −log10 of the molar value.
Measure: pIC50

Lookup: Which pIC50 is listed for `CCc1cccc(CC)c1NC(=O)c1nn(C)c2c1CCc1cnc(Nc3ccc(C(=O)NC4CCN(C)CC4)cc3OC(F)(F)F)nc1-2` ?
Found: < 5.00

---

- Target Or System: Dual specificity mitogen-activated protein kinase kinase 1 (Homo sapiens, UniProt Q02750)
- Sequence (Q02750 whole entry): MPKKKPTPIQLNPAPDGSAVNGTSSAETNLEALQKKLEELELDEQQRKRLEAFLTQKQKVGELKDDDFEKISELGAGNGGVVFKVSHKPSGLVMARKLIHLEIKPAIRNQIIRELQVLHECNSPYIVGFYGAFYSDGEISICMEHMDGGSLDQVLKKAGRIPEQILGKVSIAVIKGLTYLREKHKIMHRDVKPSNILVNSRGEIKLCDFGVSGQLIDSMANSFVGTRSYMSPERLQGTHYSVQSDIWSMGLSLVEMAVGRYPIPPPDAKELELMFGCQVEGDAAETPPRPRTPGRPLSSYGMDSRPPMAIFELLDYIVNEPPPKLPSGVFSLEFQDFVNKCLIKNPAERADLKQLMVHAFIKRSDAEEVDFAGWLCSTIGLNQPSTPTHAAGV
- Measurement Protocol: Selectivity interaction (Enzymatic assay) EUB0001199aCl MAP2K1
Measure: pIC50
Keep it numeric: pIC50 is minus log10 of the concentration in mol/L.

Lookup: Report pIC50 for `CN1Cc2nccc(-c3cn(C)nc3-c3ccc(F)cc3)c2C1=O` please.
Found: 4.99

---

- Target Or System: Vascular endothelial growth factor receptor 2 (Homo sapiens)
- Sequence (P35968 whole entry): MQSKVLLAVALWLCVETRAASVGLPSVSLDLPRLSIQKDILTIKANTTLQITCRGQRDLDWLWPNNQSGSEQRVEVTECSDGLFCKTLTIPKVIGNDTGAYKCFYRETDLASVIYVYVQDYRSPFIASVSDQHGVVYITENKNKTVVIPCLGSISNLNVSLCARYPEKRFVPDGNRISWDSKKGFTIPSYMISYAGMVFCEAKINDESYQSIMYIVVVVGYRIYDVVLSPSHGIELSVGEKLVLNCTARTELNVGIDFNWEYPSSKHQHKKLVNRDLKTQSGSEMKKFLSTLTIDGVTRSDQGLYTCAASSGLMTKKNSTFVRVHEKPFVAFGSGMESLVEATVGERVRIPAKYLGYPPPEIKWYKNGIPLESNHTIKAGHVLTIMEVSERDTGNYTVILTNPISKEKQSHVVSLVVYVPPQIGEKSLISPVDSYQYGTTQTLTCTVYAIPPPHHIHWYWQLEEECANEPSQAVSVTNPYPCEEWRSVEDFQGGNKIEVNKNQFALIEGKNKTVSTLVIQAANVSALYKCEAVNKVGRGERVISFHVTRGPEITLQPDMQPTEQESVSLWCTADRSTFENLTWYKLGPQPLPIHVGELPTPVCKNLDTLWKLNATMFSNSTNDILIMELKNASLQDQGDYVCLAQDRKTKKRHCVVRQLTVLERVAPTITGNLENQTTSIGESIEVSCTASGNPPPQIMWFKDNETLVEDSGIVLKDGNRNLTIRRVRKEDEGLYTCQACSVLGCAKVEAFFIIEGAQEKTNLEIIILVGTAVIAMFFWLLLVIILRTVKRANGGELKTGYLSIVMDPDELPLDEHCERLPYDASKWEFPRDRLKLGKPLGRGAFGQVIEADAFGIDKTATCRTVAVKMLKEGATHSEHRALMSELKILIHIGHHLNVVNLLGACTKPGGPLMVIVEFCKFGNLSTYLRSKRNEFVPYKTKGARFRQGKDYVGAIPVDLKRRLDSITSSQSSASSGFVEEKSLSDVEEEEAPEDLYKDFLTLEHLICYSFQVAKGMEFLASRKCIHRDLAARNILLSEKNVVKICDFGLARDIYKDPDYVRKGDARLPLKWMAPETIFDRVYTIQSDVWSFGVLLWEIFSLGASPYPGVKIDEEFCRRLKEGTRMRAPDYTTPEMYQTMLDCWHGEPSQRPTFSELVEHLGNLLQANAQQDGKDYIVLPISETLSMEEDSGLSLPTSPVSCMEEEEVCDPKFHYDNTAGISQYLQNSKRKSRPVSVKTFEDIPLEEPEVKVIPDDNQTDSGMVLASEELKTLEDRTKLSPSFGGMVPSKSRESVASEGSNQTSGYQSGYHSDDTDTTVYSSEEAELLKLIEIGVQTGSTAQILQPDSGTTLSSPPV
- Measurement Protocol: Selectivity interaction (Kinase panel (33PanQinase(R) Activity Assay)) EUB0000877a KDR
pIC50: −log10 of the molar value.
Measure: pIC50

Lookup: Query (molecule): CCC(=O)N1CC[C@H](Nc2ncnc3c2CN(c2cnc(OC)c(C(F)(F)F)c2)CC3)C1 [LENIOLISIB] ; field requested: pIC50
Found: < 5.00
